Target: HLA-A*69:01
Assay: IEDB peptide-MHC binding, purified MHC/direct/fluorescence; filed as Kd, often an IC50 or EC50 that approximates it; bounds were set here for any values at or beyond the usual limits of such assays
Conditions: source organism: Brucella abortus
parameter_measured: Kd

For `EKPPVRPIF` the sequence record lists Kd as ≥ 20 µM

---

Target: HLA-B*40:01
Experiment: IEDB peptide-MHC binding, purified MHC/direct/fluorescence; filed as Kd, often an IC50 or EC50 that approximates it; bounds were set here for any values at or beyond the usual limits of such assays
Details: source organism: Burkholderia mallei
pKd: −log10 of the molar value.
parameter_measured: pKd

Summary line: `EARGKEKLL` , HLA-B*40:01, reported pKd = ≤ 4.70
